B1: TPR t1 (parent)
chain: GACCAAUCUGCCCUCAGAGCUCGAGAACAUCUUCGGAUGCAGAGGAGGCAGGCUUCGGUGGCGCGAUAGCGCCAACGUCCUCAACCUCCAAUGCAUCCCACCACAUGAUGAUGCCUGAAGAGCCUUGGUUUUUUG

Variants of: B1
Assay: polymerase ribozyme fitness, log enrichment relative to wild type (log ratio); higher = more active; in vitro selection for triplet polymerase activity
The label depends only on polymerase ribozyme fitness (log ratio): true if it is at least -1, false if it is smaller.

Check out these entries, answers already filled in.
1. GACCAAUCUGCCCUCAGAGCUCGAGAACAUCUUCGGAUGCAGAGUAGUCAGGCUUCGGUGGCGCGAUCGCGCCCACGUCCUCAACCUCCAAUGCGUAUCACCAUAUGAUGAUGCCUGAAGAUCCUUGGUUUUUUG [G45U G48U A68C A74C A95G C97A C98U C104U G122U] | false
2. GACCAAUCUGCCCUCAGAGCUCGAGAACAUCUUCGGAUGCAGAGGAGGCAGGCUUCGGUGGCGCGAUAGCGCCAACGUCCUCAACCUCCAAUGCAUCCCACCACAUGAUGAGGCCGGAAGAGCCUUGGUUUUUUG [U112G U116G] | false
3. GACCAAUCUGCCCUCAGAGCUCGAGAACAUCUUCGGAUGCAGAGGAGGCAGGCUUCGGUGGCGCGAUAGCGCCAAAGUCCUCAACCUCCAAUGCAUCCUACCACAUGAUGAUGCCUGAAUAGCCUUGGUUUUUUG [C76A C99U G120U] | false
4. GACCAAUCUGCCCUCAGAGCUCGAGAACAUCUUCGGAUGCAGAGGAGGCAGGCUUCGGUGGCGCGAUAGCGACAACGUCCUCAACCUCCAAUGCAUCCCACCACAUGAUGAUGCCUGAAGCGCCUUGGUUUUUUG [C72A A121C] | true
5. GACCAAUCAGCCCUCUGAGCUCGAGAACAUCUUCGGAUGCAGAGGAGGCAGGCUUCGGUGGCGCGAUAGCGCCAACGUCCUCAACCUCUAAUGCAUCCCACCACAUGAUGAUGCCUGAAGAGCCUUGGUUUUUUG [U9A A16U C89U] | true
6. GACCAAUCUGCCCUCAGAGCUCGAGAACAUCUUCGGAUGCAGAGGAGGCAGGCUUCGGUGGCGCGAUAGCGCCAACGUCGUCAACCGACAAUGCAUCCCACCACAUGAUGAAGCCUGAAGAGCCUUGGUUUUUUG [C80G U87G C88A U112A] | false
7. GACCAAUCUGCCCUCAGAGCUCGAGAACAUCUUCGGUUGCAGAGGAGGCAGGCUUCGGUGGCGCGAUAGCUCCAACGUCCUCAACCUCCAAUGCAUCCCACCACAUGAUGAUGCCUGAAGAACCUUGGUUUUUUG [A37U G71U G122A] | false
8. GACCAAUCUGCACUCAGAGCUCGAGAACAUCUUCGGAUGCAGAGGAGGCAGGCUUCGGUGGCGCGAUAGUGCCAACGUCCUCAACCUCCAAUGCAUCCCACCACAUGAUGAUGCCUGAAGAGCCUUGGUUUUUUG [C12A C70U] | true
9. GACCAAUCUGCCCUCAGAGCUCGAGAAGAUCUUCGGAUGCAGAGGAGGCAGGCUUCGGUGGCGCGAUAGCGCCAACGUCCUUAACCUCCAAUGCAUCCCACCACAUGAUGAUGCCUGAAGAGCCUUGGUUUUUUG [C28G C82U] | false
10. GACCAAUCUGCCCUCAGAGCUCGAGAACAUCUUCGGAUGCAGAGGAGGCAGGCUUCGGUGGCGCGAUAGCGCCAACGUCCUCAACCUCCCAUGCAUCCCACCACAUGAUGAGGCCUGAAGAGCCUUGGUUUUUUG [A90C U112G] | true

Confirm if polymerase ribozyme fitness (log ratio) reported for the variant GACCAAUCUGCCCUCAGAGCUCGAGAACGUCUUCGAAUGCAGAGGAGGCAGGCUUCGGUGGCGCGAUAACUCCAACGUCCUCAACCUCCAAUGCAUCCCACCAUAUGAUGAUGCCUGAAGAGCCUUGGUUUUUUG [A29G G36A G69A G71U C104U] is -1 or above. false

Entry GACCAAACUGCCCUCAGAGCUCGAGAACAUCUUCGGAUGCAGAGGAGGCAGGCUUCGGUGGCGCGAUAGCGCCAACGUCCUCAACCUCCAAUGCAUCCCACCACUUGAUGAUGCUUGAAGAGCCUUGGUUUUUUG [U7A A105U C115U] : is its polymerase ribozyme fitness (log ratio) no less than -1? false

Tell me whether polymerase ribozyme fitness (log ratio) is at least -1 here: GACCAAUCUGGCCUCAGAGCUCGAGAACAUCUUCGGAUGCAGGGGAGGCAGGCUUCGGAGGCGUGAUAGCGCCAACGUCCUCAACCUCCAAUGCAUCCCACCACAUGAUGAUGCCUGAAGAGCCUUGGUUUUUUG [C11G A43G U59A C64U] false

Does polymerase ribozyme fitness (log ratio) meet or surpass -1 for GACCAAUCUGCCCUCAGAGGUCGAGAACAUCUUCGGAUGCAGAGGAGGCAGGUUUCGGUGGCGCGAUAGCGCCAACGUCCUCAACCUCCAAUGCAUCCCACCACAUGAUGAUGCCUGAAGAGCCUUGGUUUUUUG [C20G C53U] ? false
